target: batroxobin (recombinant SVSP) (Bothrops atrox? (printed B. atrox), UniProt P04971 25-255); assay: fluorescence bead binding assay; 2 mM Mg2+; conditions: protein: recombinant; label: 6-FAM (Kd); HRP (ALISA)
Sequence (P04971 25-255): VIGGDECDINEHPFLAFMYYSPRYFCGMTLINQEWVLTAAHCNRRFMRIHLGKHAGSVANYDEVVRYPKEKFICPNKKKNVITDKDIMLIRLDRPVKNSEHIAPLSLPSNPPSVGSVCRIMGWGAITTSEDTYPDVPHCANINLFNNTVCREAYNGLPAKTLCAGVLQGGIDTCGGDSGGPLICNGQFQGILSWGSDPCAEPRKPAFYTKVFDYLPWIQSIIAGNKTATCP
reported-endpoint: pKd
Units for pKd: none; it is -log10 of a concentration expressed in mol/L.

# input Could you tell me which pKd is on file for TGTCTGGTATGCAAAGGACTGCTGTACTGTTAGCTTTTGT (ssDNA) [batroxobin-26] ?
# output 8.33
